Record: compiled IC50 on F1F0-ATPase (Bos taurus) from multiple reports.

- COMPOUND: "CCC(C)N/C(=N/C(=O)c1cnoc1C)Nc1cc(-c2ccc(Cl)cc2)n[nH]1 (stereo not drawn)"
  IC50: "> 16 µM"
- COMPOUND: "COc1cccc(CN/C(=N/C(=O)c2cc(C(C)(C)C)nn2C)Nc2cc(-c3ccc(F)cc3)n[nH]2)c1"
  IC50: "< 5 µM"
- COMPOUND: "O=C(N=C(Nc1cc(-c2ccc(F)cc2)n[nH]1)NC1CCCC1)c1ccc(Cl)cc1"
  IC50: "< 10 µM"
- COMPOUND: "Cc1cc(C(=O)/N=C(\\Nc2cc(C(F)(F)F)[nH]n2)NC(C)(C)C)ccn1"
  IC50: "< 10 µM"
- COMPOUND: "CC(C)(C)CN/C(=N/C(=O)c1ccc(F)c(F)c1)Nc1n[nH]c2cncc(Cl)c12"
  IC50: "< 5 µM"
- COMPOUND: "CC(C)CN/C(=N/C(=O)c1ccc(F)c(F)c1)Nc1cc(-c2cc(F)cc(Cl)c2)n[nH]1"
  IC50: "< 10 µM"
- COMPOUND: "CC(C)(C)N/C(=N/C(=O)c1ccc(F)c(F)c1)Nc1n[nH]c2cccnc12"
  IC50: "5 to 16 µM"
- COMPOUND: "COC(=O)N[C@H]1CC[C@H](N/C(=N/C(=O)c2ccc(F)c(F)c2)Nc2cccc(C(F)(F)F)c2)CC1"
  IC50: "< 10 µM"
- COMPOUND: "Cc1nnsc1C(=O)/N=C(\\Nc1cc(-c2ccc(F)cc2)n[nH]1)NC(C)(C)C"
  IC50: "5 to 16 µM"
- COMPOUND: "COc1cccc(CNC(=NC(=O)c2ccc(Cl)cc2)Nc2cc(-c3ccc(F)cc3)n[nH]2)c1"
  IC50: "< 10 µM"
- COMPOUND: "CC(C)N/C(=N/C(=O)c1cc(C(C)(C)C)nn1C)Nc1cc(-c2ccc(F)cc2)n[nH]1"
  IC50: "< 5 µM"
- COMPOUND: "CCOC(=O)N[C@H]1CC[C@H](N/C(=N/C(=O)c2ccc(F)c(F)c2)Nc2ccc(F)cc2C2CC2)CC1"
  IC50: "< 10 µM"
- COMPOUND: "Cn1nc(C(C)(C)C)cc1C(=O)N/C(=N/c1cccc(O)n1)Nc1cc(F)cc(Cl)c1"
  IC50: "< 5 µM"
- COMPOUND: "CC(C)CN/C(=N/C(=O)c1ccc(Cl)c(F)c1)Nc1cc(-c2cc(F)cc(F)c2)n[nH]1"
  IC50: "< 10 µM"
- COMPOUND: "Cc1oncc1C(=O)/N=C(\\Nc1cc(-c2ccc(Cl)cc2)[nH]n1)NC1CCCC1"
  IC50: "> 16 µM"

###

Compiled from multiple publications: pIC50 readings for UniProt:P13621.
pIC50: −log10 of the molar value.

- COMPOUND: "CC(C)CNC(=NC(=O)c1ccc(Cl)cc1)Nc1cc(-c2ccc(F)cc2)n[nH]1"
  pIC50: "> 5.00"
- COMPOUND: "COc1cccc(N/C(=N\\C(=O)c2cccc(C(F)(F)F)c2)Nc2cccc(C(F)(F)F)c2)n1"
  pIC50: "< 5.00"
- COMPOUND: "CCOC(=O)NC1CCC(N/C(=N/C(=O)c2cn(C)nc2C(F)(F)F)Nc2cc(F)cc(Cl)c2)CC1 (stereo not shown)"
  pIC50: "4.80 to 5.30"
- COMPOUND: "O=C(/N=C(/NCc1ccccc1F)N[C@H]1CC[C@H](O)CC1)c1ccc(F)c(F)c1"
  pIC50: "< 5.00"
